tested on: DU-145; experiment: Antiproliferative activity against human DU-145 cells measured after 48 hrs by SRB assay; format: functional, cell-based; details: DU-145, time 48 hrs
experimental_readout: TGI (µM)

>  <smiles_representation>
COc1cccc(-c2nn(-c3ccccc3)cc2-c2ccnc(NCCCNC(=O)Nc3ccc(F)cc3)c2)c1

>  <result_units>
µM

>  <qualifier_sign>
>

>  <numeric_result>
37

$$$$
>  <smiles_representation>
O=C1c2ccccc2-c2n[nH]c3cccc1c23

>  <result_units>
µM

>  <qualifier_sign>
>

>  <numeric_result>
100

$$$$
>  <smiles_representation>
O=C(NCCCNc1cc(-c2cn(-c3ccccc3)nc2-c2cccc(O)c2)ccn1)Nc1ccc(F)cc1

>  <result_units>
µM

>  <qualifier_sign>
=

>  <numeric_result>
19.3

$$$$
>  <smiles_representation>
O=C(NCCCNc1cc(-c2cn(-c3ccccc3)nc2-c2cccc(O)c2)ccn1)Nc1cccc(C(F)(F)F)c1

>  <result_units>
µM

>  <qualifier_sign>
=

>  <numeric_result>
11.9

$$$$
>  <smiles_representation>
O=C(Nc1ccc(Cl)c(C(F)(F)F)c1)N1CCN(c2cc(-c3cn(-c4ccccc4)nc3-c3cccc(O)c3)ccn2)CC1

>  <result_units>
µM

>  <qualifier_sign>
>

>  <numeric_result>
22

$$$$

###

Below, each of the compounds is paired with its reported IC50 value.
test system: COLO 205; assay: Antiproliferative activity against human COLO 205 cells measured after 48 hrs by SRB assay; type: functional, cell-based; details: COLO 205, 48 h

>  <smiles_representation>
COc1cccc(-c2nn(-c3ccccc3)cc2-c2ccnc(NCCCNC(=O)Nc3ccc(F)cc3)c2)c1

>  <IC50, µM>
8.17

$$$$
>  <smiles_representation>
O=C(NCCCNc1cc(-c2cn(-c3ccccc3)nc2-c2cccc(O)c2)ccn1)Nc1cccc(C(F)(F)F)c1

>  <IC50, µM>
2.97

$$$$
>  <smiles_representation>
O=C(NCCCNc1cc(-c2cn(-c3ccccc3)nc2-c2cccc(O)c2)ccn1)Nc1ccc(F)cc1

>  <IC50, µM>
2.34

$$$$
>  <smiles_representation>
O=C(Nc1ccc(Cl)c(C(F)(F)F)c1)N1CCN(c2cc(-c3cn(-c4ccccc4)nc3-c3cccc(O)c3)ccn2)CC1

>  <IC50, µM>
3.01

$$$$
>  <smiles_representation>
O=C1c2ccccc2-c2n[nH]c3cccc1c23

>  <IC50, µM>
19.5

$$$$

###

system: SF-268; experiment: Antiproliferative activity against human SF-268 cells measured after 48 hrs by SRB assay; assay type: functional, cell-based; settings: SF-268, time 48 hrs
Parameter: TGI. Scope: all listed entries.

>  <smiles_representation>
O=C(NCCCNc1cc(-c2cn(-c3ccccc3)nc2-c2cccc(O)c2)ccn1)Nc1cccc(C(F)(F)F)c1

>  <qualifier_sign>
=

>  <TGI [µM]>
9.69

$$$$
>  <smiles_representation>
O=C(NCCCNc1cc(-c2cn(-c3ccccc3)nc2-c2cccc(O)c2)ccn1)Nc1ccc(F)cc1

>  <qualifier_sign>
=

>  <TGI [µM]>
11.2

$$$$
>  <smiles_representation>
O=C(Nc1ccc(Cl)c(C(F)(F)F)c1)N1CCN(c2cc(-c3cn(-c4ccccc4)nc3-c3cccc(O)c3)ccn2)CC1

>  <qualifier_sign>
>

>  <TGI [µM]>
22

$$$$
>  <smiles_representation>
COc1cccc(-c2nn(-c3ccccc3)cc2-c2ccnc(NCCCNC(=O)Nc3ccc(F)cc3)c2)c1

>  <qualifier_sign>
=

>  <TGI [µM]>
30

$$$$
>  <smiles_representation>
O=C1c2ccccc2-c2n[nH]c3cccc1c23

>  <qualifier_sign>
>

>  <TGI [µM]>
100

$$$$

###

test system: HCT-116; experiment: Antiproliferative activity against human HCT-116 cells measured after 48 hrs by SRB assay; assay type: functional, cell-based; conditions: HCT-116, time 48 hrs
experimental_readout: TGI (µM)

>  <smiles_representation>
O=C(NCCCNc1cc(-c2cn(-c3ccccc3)nc2-c2cccc(O)c2)ccn1)Nc1ccc(F)cc1

>  <experimental_readout>
TGI

>  <qualifier_sign>
=

>  <numeric_result>
5.82

$$$$
>  <smiles_representation>
O=C(NCCCNc1cc(-c2cn(-c3ccccc3)nc2-c2cccc(O)c2)ccn1)Nc1cccc(C(F)(F)F)c1

>  <experimental_readout>
TGI

>  <qualifier_sign>
=

>  <numeric_result>
6.33

$$$$
>  <smiles_representation>
O=C(Nc1ccc(Cl)c(C(F)(F)F)c1)N1CCN(c2cc(-c3cn(-c4ccccc4)nc3-c3cccc(O)c3)ccn2)CC1

>  <experimental_readout>
TGI

>  <qualifier_sign>
>

>  <numeric_result>
22

$$$$
>  <smiles_representation>
O=C1c2ccccc2-c2n[nH]c3cccc1c23

>  <experimental_readout>
TGI

>  <qualifier_sign>
>

>  <numeric_result>
100

$$$$
>  <smiles_representation>
COc1cccc(-c2nn(-c3ccccc3)cc2-c2ccnc(NCCCNC(=O)Nc3ccc(F)cc3)c2)c1

>  <experimental_readout>
TGI

>  <qualifier_sign>
=

>  <numeric_result>
17

$$$$

###

test system: SK-OV-3; test: Antiproliferative activity against human SK-OV-3 cells measured after 48 hrs by SRB assay; format: functional, cell-based; details: SK-OV-3, time 48 hrs

>  <smiles_representation>
O=C(Nc1ccc(Cl)c(C(F)(F)F)c1)N1CCN(c2cc(-c3cn(-c4ccccc4)nc3-c3cccc(O)c3)ccn2)CC1

>  <qualifier_sign>
>

>  <TGI [µM]>
22

$$$$
>  <smiles_representation>
O=C(NCCCNc1cc(-c2cn(-c3ccccc3)nc2-c2cccc(O)c2)ccn1)Nc1cccc(C(F)(F)F)c1

>  <qualifier_sign>
=

>  <TGI [µM]>
10.1

$$$$
>  <smiles_representation>
O=C1c2ccccc2-c2n[nH]c3cccc1c23

>  <qualifier_sign>
>

>  <TGI [µM]>
100

$$$$
>  <smiles_representation>
COc1cccc(-c2nn(-c3ccccc3)cc2-c2ccnc(NCCCNC(=O)Nc3ccc(F)cc3)c2)c1

>  <qualifier_sign>
>

>  <TGI [µM]>
37

$$$$
>  <smiles_representation>
O=C(NCCCNc1cc(-c2cn(-c3ccccc3)nc2-c2cccc(O)c2)ccn1)Nc1ccc(F)cc1

>  <qualifier_sign>
=

>  <TGI [µM]>
10.8

$$$$

###

test system: HOP-92; assay: Antiproliferative activity against human HOP-92 cells measured after 48 hrs by SRB assay; assay type: functional, cell-based; settings: HOP-92, 48 h
# log10(IC50) annotations
experimental_readout: log10(IC50) (log10 of the value in nM)

>  <smiles_representation>
O=C(NCCCNc1cc(-c2cn(-c3ccccc3)nc2-c2cccc(O)c2)ccn1)Nc1ccc(F)cc1

>  <log10(IC50)>
2.93

$$$$
>  <smiles_representation>
COc1cccc(-c2nn(-c3ccccc3)cc2-c2ccnc(NCCCNC(=O)Nc3ccc(F)cc3)c2)c1

>  <log10(IC50)>
3.80

$$$$
>  <smiles_representation>
O=C(NCCCNc1cc(-c2cn(-c3ccccc3)nc2-c2cccc(O)c2)ccn1)Nc1cccc(C(F)(F)F)c1

>  <log10(IC50)>
3.10

$$$$
>  <smiles_representation>
O=C1c2ccccc2-c2n[nH]c3cccc1c23

>  <log10(IC50)>
4.58

$$$$
>  <smiles_representation>
O=C(Nc1ccc(Cl)c(C(F)(F)F)c1)N1CCN(c2cc(-c3cn(-c4ccccc4)nc3-c3cccc(O)c3)ccn2)CC1

>  <log10(IC50)>
3.41

$$$$

###

target: Cytochrome P450 2D6 (Homo sapiens)
Sequence (P10635 whole entry): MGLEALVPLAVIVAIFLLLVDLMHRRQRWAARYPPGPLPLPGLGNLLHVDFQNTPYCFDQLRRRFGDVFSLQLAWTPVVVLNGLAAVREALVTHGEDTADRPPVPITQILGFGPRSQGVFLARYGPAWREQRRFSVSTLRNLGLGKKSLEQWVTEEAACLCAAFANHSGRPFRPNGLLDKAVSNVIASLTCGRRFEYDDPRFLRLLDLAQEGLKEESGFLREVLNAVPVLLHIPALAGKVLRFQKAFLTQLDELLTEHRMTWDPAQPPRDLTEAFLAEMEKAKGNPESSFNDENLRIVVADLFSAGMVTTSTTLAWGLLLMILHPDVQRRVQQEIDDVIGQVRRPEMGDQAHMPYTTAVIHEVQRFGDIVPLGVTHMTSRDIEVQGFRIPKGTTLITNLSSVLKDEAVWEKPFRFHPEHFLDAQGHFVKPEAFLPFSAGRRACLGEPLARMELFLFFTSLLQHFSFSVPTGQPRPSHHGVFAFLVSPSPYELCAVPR

>  <smiles_representation>
O=C(NCCCNc1cc(-c2cn(-c3ccccc3)nc2-c2cccc(O)c2)ccn1)Nc1ccc(F)cc1

>  <IC50>
5.54 µM

$$$$

###

Each entry below lists one item and its recorded IC50 value.
target: Voltage-gated inwardly rectifying potassium channel KCNH2 (Homo sapiens, UniProt Q12809)
Sequence (Q12809 whole entry): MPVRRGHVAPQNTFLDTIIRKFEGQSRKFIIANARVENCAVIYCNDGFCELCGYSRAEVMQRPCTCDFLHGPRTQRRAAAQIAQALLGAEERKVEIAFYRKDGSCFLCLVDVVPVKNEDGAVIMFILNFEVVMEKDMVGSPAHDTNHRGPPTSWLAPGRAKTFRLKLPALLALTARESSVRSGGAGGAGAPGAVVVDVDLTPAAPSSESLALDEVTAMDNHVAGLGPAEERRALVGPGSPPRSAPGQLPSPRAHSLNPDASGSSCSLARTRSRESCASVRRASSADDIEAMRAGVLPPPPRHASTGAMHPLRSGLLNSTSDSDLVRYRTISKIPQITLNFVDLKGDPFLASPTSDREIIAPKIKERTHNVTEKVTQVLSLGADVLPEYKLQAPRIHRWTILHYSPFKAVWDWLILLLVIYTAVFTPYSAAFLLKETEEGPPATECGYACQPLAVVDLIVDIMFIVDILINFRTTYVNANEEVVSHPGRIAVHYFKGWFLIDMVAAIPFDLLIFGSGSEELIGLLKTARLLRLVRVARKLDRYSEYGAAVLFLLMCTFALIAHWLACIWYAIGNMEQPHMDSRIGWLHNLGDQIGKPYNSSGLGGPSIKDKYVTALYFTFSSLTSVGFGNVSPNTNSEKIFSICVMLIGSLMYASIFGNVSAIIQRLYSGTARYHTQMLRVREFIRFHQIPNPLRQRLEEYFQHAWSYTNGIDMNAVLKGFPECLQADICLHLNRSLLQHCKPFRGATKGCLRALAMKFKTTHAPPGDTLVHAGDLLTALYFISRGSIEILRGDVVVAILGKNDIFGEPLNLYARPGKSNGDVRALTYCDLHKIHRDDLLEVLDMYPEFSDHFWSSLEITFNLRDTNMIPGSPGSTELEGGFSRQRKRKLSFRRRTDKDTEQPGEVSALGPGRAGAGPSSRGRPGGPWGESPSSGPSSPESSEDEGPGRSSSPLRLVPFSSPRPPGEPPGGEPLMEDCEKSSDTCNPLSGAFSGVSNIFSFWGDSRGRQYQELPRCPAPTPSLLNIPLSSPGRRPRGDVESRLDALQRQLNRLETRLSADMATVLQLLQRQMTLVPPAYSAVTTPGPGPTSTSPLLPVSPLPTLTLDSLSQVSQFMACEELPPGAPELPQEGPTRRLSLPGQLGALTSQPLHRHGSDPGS
experimental_readout: IC50

>  <smiles_representation>
O=C(NCCNc1cc(-c2cn(-c3ccccc3)nc2-c2cccc(O)c2)ccn1)Nc1cccc(C(F)(F)F)c1

>  <result>
> 50 µM

$$$$
>  <smiles_representation>
O=C(NCCCNc1cc(-c2cn(-c3ccccc3)nc2-c2cccc(O)c2)ccn1)Nc1ccc(F)cc1

>  <result>
> 50 µM

$$$$

###

system: UACC-257; experiment: Antiproliferative activity against human UACC-257 cells measured after 48 hrs by SRB assay; assay type: functional, cell-based; settings: UACC-257, time 48 hrs
Cut-off 8 µM on TGI: below means YES, at or above means NO.

>  <compound>
O=C(NCCCNc1cc(-c2cn(-c3ccccc3)nc2-c2cccc(O)c2)ccn1)Nc1cccc(C(F)(F)F)c1

>  <class>
NO

$$$$
>  <compound>
O=C(NCCCNc1cc(-c2cn(-c3ccccc3)nc2-c2cccc(O)c2)ccn1)Nc1ccc(F)cc1

>  <class>
YES

$$$$
>  <compound>
COc1cccc(-c2nn(-c3ccccc3)cc2-c2ccnc(NCCCNC(=O)Nc3ccc(F)cc3)c2)c1

>  <class>
NO

$$$$
>  <compound>
O=C1c2ccccc2-c2n[nH]c3cccc1c23

>  <class>
NO

$$$$
>  <compound>
O=C(Nc1ccc(Cl)c(C(F)(F)F)c1)N1CCN(c2cc(-c3cn(-c4ccccc4)nc3-c3cccc(O)c3)ccn2)CC1

>  <class>
NO

$$$$
>  <compound>
CNC(=O)c1cc(Oc2ccc(NC(=O)Nc3ccc(Cl)c(C(F)(F)F)c3)cc2)ccn1 [SORAFENIB]

>  <class>
YES

$$$$

Numbers sourced from ChEMBL document CHEMBL5113453.
